- Tested on: LXRb:RXRa (NR concentration 270 nM, RXRa partner concentration 90 nM)
- Test Name: PBM binding z-score (relative to random genomic background probes); higher = stronger binding; sequences stand for … in GC…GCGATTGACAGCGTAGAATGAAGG
Provide the recorded PBM binding z-score for the entries that follow.

Seq	PBM binding z-score
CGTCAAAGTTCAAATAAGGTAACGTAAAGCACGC	4.17
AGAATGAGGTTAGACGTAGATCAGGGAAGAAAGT	0.67

For every item below, please supply its PBM binding z-score.
1. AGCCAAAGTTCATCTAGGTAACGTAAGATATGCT
2. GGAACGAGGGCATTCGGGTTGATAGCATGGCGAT
3. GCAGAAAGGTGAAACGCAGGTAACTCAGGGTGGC

1: 3.78; 2: 0.287; 3: 0.912

###

Kindly supply the reported PBM binding z-score values for the records listed here.
- Tested on: THRa homodimer (NR concentration 90 nM)
- Test Name: PBM binding z-score (relative to random genomic background probes); higher = stronger binding; sequences stand for … in GC…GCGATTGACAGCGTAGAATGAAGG
Answers are plain numbers.

Seq	Tested Target	PBM binding z-score
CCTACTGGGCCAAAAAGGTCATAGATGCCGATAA	THRa homodimer (NR concentration 90 nM)	0.589
CGAACTAGGTCATTGACAGGACAGTGATTAGTAA	THRa homodimer (NR concentration 90 nM)	1.05
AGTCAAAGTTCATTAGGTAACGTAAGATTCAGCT	THRa homodimer (NR concentration 90 nM)	0.801
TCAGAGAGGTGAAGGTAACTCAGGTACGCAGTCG	THRa homodimer (NR concentration 90 nM)	0.401
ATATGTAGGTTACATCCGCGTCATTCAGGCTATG	THRa homodimer (NR concentration 90 nM)	0.124

Give PBM binding z-score for each listed item.
1. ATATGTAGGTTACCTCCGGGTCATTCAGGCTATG
2. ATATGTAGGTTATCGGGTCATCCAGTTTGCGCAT
3. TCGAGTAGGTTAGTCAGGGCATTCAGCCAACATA

[2.66, 3.07, 0.314]

# return PBM binding z-score for each item in the list
1. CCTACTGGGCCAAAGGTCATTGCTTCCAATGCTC
2. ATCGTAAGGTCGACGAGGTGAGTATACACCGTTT
3. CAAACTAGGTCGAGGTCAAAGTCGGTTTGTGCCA
4. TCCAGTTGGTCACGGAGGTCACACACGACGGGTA
5. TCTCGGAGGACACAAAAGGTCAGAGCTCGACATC

1. 0.719
2. 2.39
3. 3.49
4. 2.09
5. 1.1

Could I get PBM binding z-score for every one of these entries?
1. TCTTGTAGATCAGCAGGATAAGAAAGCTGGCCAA
2. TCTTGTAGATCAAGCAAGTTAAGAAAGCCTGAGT
3. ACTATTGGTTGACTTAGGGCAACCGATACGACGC

-0.84
-0.759
0.213

Your task in this section: give PBM binding z-score for each listed record.
1. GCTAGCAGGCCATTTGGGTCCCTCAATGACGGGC
2. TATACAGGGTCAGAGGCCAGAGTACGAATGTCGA
3. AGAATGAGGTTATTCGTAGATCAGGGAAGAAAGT
4. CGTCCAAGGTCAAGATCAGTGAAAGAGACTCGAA

1: -1.01; 2: 0.817; 3: 0.475; 4: 1.84

For the 5 sequences below, give their PBM binding z-score values.
1. CCGACTGGGGCAAAAGGTTACCATAAGCCAGCCC
2. CCTTACGGGTCACGAGCTTATAGCACGACGAGCG
3. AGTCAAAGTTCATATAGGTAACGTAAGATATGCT
4. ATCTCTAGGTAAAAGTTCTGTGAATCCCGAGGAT
5. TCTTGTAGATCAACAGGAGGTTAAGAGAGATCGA

[-0.187, 0.145, -0.342, 0.364, -0.746]

Output reported PBM binding z-score of the sequence CAAACTAGGTCACCGGAAGGGCAAAGTCCGCATG on THRa homodimer (NR concentration 90 nM).
1.7

###

- Tested on: PPARg DBDmut IVT, anti-PPARg (DBD mutation: PPARg1 K132A/R137A, NR concentration 270 nM)
- Test Name: PBM binding z-score (relative to random genomic background probes); higher = stronger binding; sequences stand for … in GC…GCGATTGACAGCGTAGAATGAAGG
Please provide measured PBM binding z-score for the entries that follow.
One number for each entry.

Seq	PBM binding z-score
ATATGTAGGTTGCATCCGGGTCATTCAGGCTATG	0.927
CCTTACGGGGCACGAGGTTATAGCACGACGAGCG	-1.3
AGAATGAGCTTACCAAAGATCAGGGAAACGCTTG	-0.198
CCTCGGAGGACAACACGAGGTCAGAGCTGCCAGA	-1.22
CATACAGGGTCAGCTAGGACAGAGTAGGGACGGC	0.0196

Parameter requested: PBM binding z-score. Apply to each item below.
1. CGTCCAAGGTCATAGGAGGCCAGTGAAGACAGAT
2. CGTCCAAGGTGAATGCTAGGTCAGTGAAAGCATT
3. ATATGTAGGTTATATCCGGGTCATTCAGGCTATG
4. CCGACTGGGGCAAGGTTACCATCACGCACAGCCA
5. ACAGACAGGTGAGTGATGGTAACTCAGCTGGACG
6. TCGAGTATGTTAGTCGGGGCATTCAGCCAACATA

[0.508, -0.549, 2.59, -0.665, -0.268, -0.979]

Report PBM binding z-score for each item below.
1. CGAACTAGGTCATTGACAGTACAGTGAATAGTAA
2. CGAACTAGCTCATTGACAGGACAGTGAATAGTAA

1. 2.28
2. 0.24

I need PBM binding z-score for every entry listed below, if you could help.
1. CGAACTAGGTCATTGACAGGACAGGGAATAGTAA
2. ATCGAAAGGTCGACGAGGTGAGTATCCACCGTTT
3. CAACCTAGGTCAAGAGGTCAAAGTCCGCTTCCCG
4. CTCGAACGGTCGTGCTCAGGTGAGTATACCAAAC

1: 1.03; 2: 0.779; 3: -0.16; 4: -0.726

Please supply PBM binding z-score for each of the following items, keeping them in order.
1. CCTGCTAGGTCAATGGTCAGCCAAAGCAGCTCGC
2. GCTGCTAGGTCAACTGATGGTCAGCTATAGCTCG
3. AGTCAAGGTTCAGGACGAGGTAACGTAAAGCACG
4. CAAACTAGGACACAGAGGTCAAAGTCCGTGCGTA
5. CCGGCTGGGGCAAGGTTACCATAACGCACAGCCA
6. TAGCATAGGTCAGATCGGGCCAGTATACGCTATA

-0.321
-0.34
0.579
2.78
-1.85
-0.529

###

- System: THRa:RXRa (NR concentration 90 nM, RXRa partner concentration 90 nM)
- Test Name: PBM binding z-score (relative to random genomic background probes); higher = stronger binding; sequences stand for … in GC…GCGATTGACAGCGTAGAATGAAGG
Assign 1 to entries whose PBM binding z-score meets or exceeds 2; assign 0 to the rest.

Could you verify whether the entry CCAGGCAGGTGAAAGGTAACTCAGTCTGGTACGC shows PBM binding z-score of no less than 2?
0

Please tell me: is the sequence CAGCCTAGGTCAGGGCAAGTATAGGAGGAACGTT at or over 2 in terms of PBM binding z-score?
1

Does the reported PBM binding z-score for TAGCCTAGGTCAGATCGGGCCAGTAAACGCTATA fall at or above the 2 mark?
1

Check this sequence for PBM binding z-score at or above 2: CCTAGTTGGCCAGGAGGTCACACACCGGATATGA
1

Hello, I need to know if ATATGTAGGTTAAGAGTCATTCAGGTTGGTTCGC has measured PBM binding z-score not below 2. Thanks!
0

Form field: PBM binding z-score at least 2? Entry: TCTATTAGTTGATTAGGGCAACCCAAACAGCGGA
0

Does ACTATTAGTTGGGACGAGGGCAACCGATAGGTTG have a reported PBM binding z-score of at least 2?
0

Check if PBM binding z-score >= 2 (inclusive). Item: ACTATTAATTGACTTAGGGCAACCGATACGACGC
0

Is PBM binding z-score for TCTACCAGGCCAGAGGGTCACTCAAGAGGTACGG at or above 2?
0

Is reported PBM binding z-score greater than or equal to 2 here: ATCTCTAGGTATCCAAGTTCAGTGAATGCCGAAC
0

Could you tell me if the measured PBM binding z-score of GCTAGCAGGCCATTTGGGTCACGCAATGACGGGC reaches 2 or more?
1
